Recorded pIC50 values for a group of compounds are listed next.
target: human NHE-1 (Homo sapiens); test: NHE-1 inhibition, FLIPR assay of pHi recovery in transfected cell lines; details: transfected LAP-1 cell line expressing human NHE-1, read-out: NHE1 inhibition IC50
Sequence (P19634 whole entry): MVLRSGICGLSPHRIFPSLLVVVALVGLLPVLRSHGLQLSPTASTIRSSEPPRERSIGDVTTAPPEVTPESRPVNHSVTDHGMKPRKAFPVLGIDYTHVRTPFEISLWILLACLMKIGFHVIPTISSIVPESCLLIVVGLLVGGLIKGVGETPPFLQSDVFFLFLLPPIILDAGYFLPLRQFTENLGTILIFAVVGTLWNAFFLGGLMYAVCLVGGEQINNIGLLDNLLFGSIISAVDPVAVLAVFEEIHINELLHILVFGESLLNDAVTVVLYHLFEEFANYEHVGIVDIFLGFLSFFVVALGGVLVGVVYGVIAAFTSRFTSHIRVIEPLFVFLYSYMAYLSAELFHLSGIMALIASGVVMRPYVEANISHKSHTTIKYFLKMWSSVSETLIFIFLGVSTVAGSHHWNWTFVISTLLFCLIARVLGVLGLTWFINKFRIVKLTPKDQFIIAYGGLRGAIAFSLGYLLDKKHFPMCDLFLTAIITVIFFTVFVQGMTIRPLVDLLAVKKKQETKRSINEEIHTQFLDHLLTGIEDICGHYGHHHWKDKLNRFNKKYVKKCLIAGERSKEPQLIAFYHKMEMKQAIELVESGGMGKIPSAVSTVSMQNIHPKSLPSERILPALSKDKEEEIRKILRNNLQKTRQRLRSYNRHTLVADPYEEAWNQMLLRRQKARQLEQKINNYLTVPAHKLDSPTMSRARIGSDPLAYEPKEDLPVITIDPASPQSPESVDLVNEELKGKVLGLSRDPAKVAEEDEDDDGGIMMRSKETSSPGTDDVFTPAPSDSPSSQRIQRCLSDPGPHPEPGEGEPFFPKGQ
Counter-ions that a name gives are not always drawn.
Just the number, please; pIC50 means minus log10 of the concentration in mol/L.

For orientation, consider the following solved cases.
INSERT INTO assay_data (compound, quantitative_readout) VALUES
  ('Cc1cc(N2CCCCS2(=O)=O)c(S(C)(=O)=O)cc1C(=O)N=C(N)N [Example 2]', 6.84),
  ('Cc1cc(N2CCN(C3CC3)S2(=O)=O)c(S(C)(=O)=O)cc1C(=O)N=C(N)N [Example 11]', 6.95),
  ('Cc1cc(N2CC(c3ccc(F)cc3)CS2(=O)=O)c(S(C)(=O)=O)cc1C(=O)N=C(N)N (single isomer, unassigned; enantiomer a) [Example 8]', 7.92),
  ('Cc1cc(N2CCCN(C3CC3)S2(=O)=O)c(S(C)(=O)=O)cc1C(=O)N=C(N)N [Example 12]', 5.82),
  ('Cc1cc(N2CC(c3ccccc3)CS2(=O)=O)c(S(C)(=O)=O)cc1C(=O)N=C(N)N (single isomer, unassigned; enantiomer b) [Example 6]', 7.35),
  ('Cc1cc(N2CC(c3ccccc3)CS2(=O)=O)c(S(C)(=O)=O)cc1C(=O)N=C(N)N (centres unmarked) [Example 4, hydrochloride]', 8.22),
  ('Cc1cc(N2CC(c3ccc(F)cc3)CS2(=O)=O)c(S(C)(=O)=O)cc1C(=O)N=C(N)N (centres unmarked) [Example 7, hydrochloride]', 7.72),
  ('NC(N)=NC(=O)c1ccc(N2CCCCS2(=O)=O)c(C(F)(F)F)c1 [Example 14]', 7.89),
  ('Cc1cc(N2CC(c3ccccc3)CS2(=O)=O)c(S(C)(=O)=O)cc1C(=O)N=C(N)N (single isomer, unassigned; enantiomer a) [Example 5]', 7.89),
  ('NC(N)=NC(=O)c1ccc(N2CCCS2(=O)=O)c(C(F)(F)F)c1 [Example 13]', 7.70);

Provide pIC50, tested on human NHE-1 (Homo sapiens), for Cc1cc(N2CCCS2(=O)=O)c(S(C)(=O)=O)cc1C(=O)N=C(N)N [Example 1] .
7.42

Print human NHE-1 (Homo sapiens) pIC50 for Cc1cc(N2CC(c3ccccc3)CCS2(=O)=O)c(S(C)(=O)=O)cc1C(=O)N=C(N)N (centres unmarked) [Example 10] .
7.29

For human NHE-1 (Homo sapiens), give pIC50 of the listed compound: Cc1cc(N2C(C)(C)CCS2(=O)=O)c(S(C)(=O)=O)cc1C(=O)N=C(N)N [Example 3]
6.71

Report the value of pIC50 obtained on human NHE-1 (Homo sapiens) for Cc1cc(N2CC(c3ccc(F)cc3)CS2(=O)=O)c(S(C)(=O)=O)cc1C(=O)N=C(N)N.Cl (single isomer, unassigned; enantiomer b) [Example 9] .
7.64
